Parameter viability, T/C: see the listing below.
test system: 463943-066-T-J2-PDC complex spheroid growth; test: Anticancer human tumor 463943-066-T-J2-PDC patient-derived colon adenocarcinoma cell line growth inhibition [Asc]; settings: second compound 0.316 µM; first compound 3.16 µM; active compounds read low;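 also: compound exposure lasted 7 days; 100% = DMSO vehicle control wells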
OBSERVED_PROPERTY: viability, T/C (%)

{"MOLECULE": "C=C(F)C(=O)N1CCN(c2nc(OCC3CCCN3C)nc3c2CCN(c2cccc4cccc(Cl)c24)C3)CC1CC#N (stereo unspecified) + Cc1c(S(C)(=O)=O)c(-c2cc(F)cc(N3CCN(c4ccc(NS(=O)(=O)c5ccc(NC(CCN6CCC(C(=O)OCCCP(=O)(O)O)CC6)CSc6ccccc6)c(S(=O)(=O)C(F)(F)F)c5)cc4)CC3)c2)c(-c2ccc(Cl)cc2)n1C(C)C", "EXPERIMENTAL_SYSTEM": "463943-066-T-J2-PDC complex spheroid growth", "EXPERIMENTAL_VALUE": 60.8}
{"MOLECULE": "C#Cc1c(F)ccc2cc(O)cc(-c3ncc4c(N5CC6CCC(C5)N6)nc(OCC56CCCN5CC(F)C6)nc4c3F)c12 (stereo unspecified) + CNC(C)C(=O)NC1CN(S(=O)(=O)c2cccc(S(=O)(=O)N3CCC4CCC(C(=O)NC(c5ccccc5)c5ccccc5)N4C(=O)C(NC(=O)C(C)NC)C3)c2)CCC2CCC(C(=O)NC(c3ccccc3)c3ccccc3)N2C1=O", "EXPERIMENTAL_SYSTEM": "463943-066-T-J2-PDC complex spheroid growth", "EXPERIMENTAL_VALUE": 100}
{"MOLECULE": "C=CC(=O)N1CCN(c2nc(=O)n(-c3c(C)ccnc3C(C)C)c3nc(-c4c(O)cccc4F)c(F)cc23)C(C)C1 (stereo unspecified) + Cc1c(S(C)(=O)=O)c(-c2cc(F)cc(N3CCN(c4ccc(NS(=O)(=O)c5ccc(NC(CCN6CCC(C(=O)OCCCP(=O)(O)O)CC6)CSc6ccccc6)c(S(=O)(=O)C(F)(F)F)c5)cc4)CC3)c2)c(-c2ccc(Cl)cc2)n1C(C)C", "EXPERIMENTAL_SYSTEM": "463943-066-T-J2-PDC complex spheroid growth", "EXPERIMENTAL_VALUE": 86.8}
{"MOLECULE": "C#Cc1c(F)ccc2cc(O)cc(-c3ncc4c(N5CC6CCC(C5)N6)nc(OCC56CCCN5CC(F)C6)nc4c3F)c12 (stereo unspecified) + Cc1c(S(C)(=O)=O)c(-c2cc(F)cc(N3CCN(c4ccc(NS(=O)(=O)c5ccc(NC(CCN6CCC(C(=O)OCCCP(=O)(O)O)CC6)CSc6ccccc6)c(S(=O)(=O)C(F)(F)F)c5)cc4)CC3)c2)c(-c2ccc(Cl)cc2)n1C(C)C", "EXPERIMENTAL_SYSTEM": "463943-066-T-J2-PDC complex spheroid growth", "EXPERIMENTAL_VALUE": 97.2}
{"MOLECULE": "O=C(c1cc(Cc2n[nH]c(=O)c3ccccc23)ccc1F)N1CCN(C(=O)C2CC2)CC1 + CNC(C)C(=O)NC1CN(S(=O)(=O)c2cccc(S(=O)(=O)N3CCC4CCC(C(=O)NC(c5ccccc5)c5ccccc5)N4C(=O)C(NC(=O)C(C)NC)C3)c2)CCC2CCC(C(=O)NC(c3ccccc3)c3ccccc3)N2C1=O", "EXPERIMENTAL_SYSTEM": "463943-066-T-J2-PDC complex spheroid growth", "EXPERIMENTAL_VALUE": 87.2}
{"MOLECULE": "O=C(c1cc(Cc2n[nH]c(=O)c3ccccc23)ccc1F)N1CCN(C(=O)C2CC2)CC1 + Cc1c(S(C)(=O)=O)c(-c2cc(F)cc(N3CCN(c4ccc(NS(=O)(=O)c5ccc(NC(CCN6CCC(C(=O)OCCCP(=O)(O)O)CC6)CSc6ccccc6)c(S(=O)(=O)C(F)(F)F)c5)cc4)CC3)c2)c(-c2ccc(Cl)cc2)n1C(C)C", "EXPERIMENTAL_SYSTEM": "463943-066-T-J2-PDC complex spheroid growth", "EXPERIMENTAL_VALUE": 88.7}
